- System Under Test: p110β/p85α (Homo sapiens)
- Sequence (P42338 whole entry): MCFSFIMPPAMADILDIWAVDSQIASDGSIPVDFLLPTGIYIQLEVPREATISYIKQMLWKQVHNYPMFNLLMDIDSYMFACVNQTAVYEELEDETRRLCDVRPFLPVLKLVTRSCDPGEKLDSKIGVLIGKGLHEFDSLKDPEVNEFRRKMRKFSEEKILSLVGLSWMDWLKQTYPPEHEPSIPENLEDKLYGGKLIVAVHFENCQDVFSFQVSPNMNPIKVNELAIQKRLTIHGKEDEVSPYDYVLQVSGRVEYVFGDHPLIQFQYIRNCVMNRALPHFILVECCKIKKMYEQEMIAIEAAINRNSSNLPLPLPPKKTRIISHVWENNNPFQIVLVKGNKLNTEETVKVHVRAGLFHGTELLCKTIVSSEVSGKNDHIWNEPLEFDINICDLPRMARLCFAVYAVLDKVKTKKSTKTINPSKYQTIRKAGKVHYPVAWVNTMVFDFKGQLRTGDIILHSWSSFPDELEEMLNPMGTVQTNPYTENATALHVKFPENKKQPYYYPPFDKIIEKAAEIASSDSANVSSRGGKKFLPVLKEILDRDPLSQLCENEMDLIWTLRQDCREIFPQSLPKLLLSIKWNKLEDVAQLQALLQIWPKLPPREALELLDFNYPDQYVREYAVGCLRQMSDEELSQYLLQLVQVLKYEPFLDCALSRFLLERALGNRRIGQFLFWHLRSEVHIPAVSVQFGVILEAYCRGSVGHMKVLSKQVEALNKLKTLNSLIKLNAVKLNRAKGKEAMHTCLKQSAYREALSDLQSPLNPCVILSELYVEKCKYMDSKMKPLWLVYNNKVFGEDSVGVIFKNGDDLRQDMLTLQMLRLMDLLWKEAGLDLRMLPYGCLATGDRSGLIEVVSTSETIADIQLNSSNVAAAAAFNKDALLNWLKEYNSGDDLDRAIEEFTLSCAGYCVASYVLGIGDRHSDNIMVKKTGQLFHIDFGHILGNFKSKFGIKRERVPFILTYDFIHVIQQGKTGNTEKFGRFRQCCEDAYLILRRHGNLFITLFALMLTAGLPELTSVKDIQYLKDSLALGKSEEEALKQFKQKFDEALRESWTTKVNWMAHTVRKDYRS
- Sequence (P27986 2-724 partner): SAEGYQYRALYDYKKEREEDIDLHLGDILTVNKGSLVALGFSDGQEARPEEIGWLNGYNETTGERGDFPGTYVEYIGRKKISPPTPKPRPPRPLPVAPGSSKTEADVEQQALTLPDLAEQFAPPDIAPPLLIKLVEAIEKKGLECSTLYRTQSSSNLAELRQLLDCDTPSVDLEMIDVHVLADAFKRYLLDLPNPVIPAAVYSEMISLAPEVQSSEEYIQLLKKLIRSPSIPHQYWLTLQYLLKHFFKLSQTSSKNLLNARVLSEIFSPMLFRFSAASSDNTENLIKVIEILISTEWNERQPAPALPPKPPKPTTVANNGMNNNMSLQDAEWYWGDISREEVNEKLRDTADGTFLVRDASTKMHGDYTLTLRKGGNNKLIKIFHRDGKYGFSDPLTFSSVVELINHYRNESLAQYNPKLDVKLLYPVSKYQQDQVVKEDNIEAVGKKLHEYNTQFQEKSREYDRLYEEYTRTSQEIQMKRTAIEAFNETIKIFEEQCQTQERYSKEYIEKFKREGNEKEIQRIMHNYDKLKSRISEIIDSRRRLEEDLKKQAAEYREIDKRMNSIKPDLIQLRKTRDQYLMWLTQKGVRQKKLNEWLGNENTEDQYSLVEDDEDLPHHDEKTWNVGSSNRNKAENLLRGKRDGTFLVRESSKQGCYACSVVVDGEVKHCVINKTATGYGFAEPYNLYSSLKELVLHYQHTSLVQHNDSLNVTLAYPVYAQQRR
- Experiment: Transcreener KINASE Assay, kinase inhibition of p110β/p85α
- Condition Notes: read-out: PI3Kβ IC50
Experimental Readout: log10(IC50) (log10 of the value in nM)
Please interpret these as log10 of IC50 where IC50 is in nM.

Could you tell me which log10(IC50) is on file for CS(=O)(=O)[C@H]1C[C@@H](c2nn3ccc(Cl)c3c(=O)n2-c2ccccc2)N(c2ncnc3[nH]cc(C#N)c23)C1 [Compound 365] ?
2.44

Could you tell me which log10(IC50) is on file for Cc1ccn2nc([C@@H]3CCCN3c3ncnc4[nH]cc(C#N)c34)n(-c3ccccc3)c(=O)c12 [Compound 42] ?
2.27

Could you tell me which log10(IC50) is on file for N#Cc1c[nH]c2ncnc(N3CCC[C@H]3c3nn4ccc(Cl)c4c(=O)n3CCN3CCOCC3)c12 [Compound 255] ?
2.48

Could you tell me which log10(IC50) is on file for O=c1c2c(Cl)ccn2nc([C@@H]2CCN2c2nc(N3CCOCC3)nc3[nH]cnc23)n1-c1ccccc1 [Compound 114] ?
2.20

Could you tell me which log10(IC50) is on file for CC(Nc1ncnc(N)c1C#N)c1cn2ccc(Cl)c2c(=O)n1-c1ccccc1 (stereo not shown) [Compound 89] ?
1.23

Could you tell me which log10(IC50) is on file for O=c1c2c(Cl)ccn2nc([C@@H]2C[C@H](O)CN2c2ncnc3[nH]cnc23)n1-c1ccccc1 [Compound 262] ?
1.26

Could you tell me which log10(IC50) is on file for CC(Nc1ncnc(N)c1C#N)c1cc2cccn2c(=O)n1-c1ccccc1 (stereo not shown) [Compound 120] ?
2.37

====

- System Under Test: p110δ/p85α (Homo sapiens)
- Sequence (O00329 whole entry): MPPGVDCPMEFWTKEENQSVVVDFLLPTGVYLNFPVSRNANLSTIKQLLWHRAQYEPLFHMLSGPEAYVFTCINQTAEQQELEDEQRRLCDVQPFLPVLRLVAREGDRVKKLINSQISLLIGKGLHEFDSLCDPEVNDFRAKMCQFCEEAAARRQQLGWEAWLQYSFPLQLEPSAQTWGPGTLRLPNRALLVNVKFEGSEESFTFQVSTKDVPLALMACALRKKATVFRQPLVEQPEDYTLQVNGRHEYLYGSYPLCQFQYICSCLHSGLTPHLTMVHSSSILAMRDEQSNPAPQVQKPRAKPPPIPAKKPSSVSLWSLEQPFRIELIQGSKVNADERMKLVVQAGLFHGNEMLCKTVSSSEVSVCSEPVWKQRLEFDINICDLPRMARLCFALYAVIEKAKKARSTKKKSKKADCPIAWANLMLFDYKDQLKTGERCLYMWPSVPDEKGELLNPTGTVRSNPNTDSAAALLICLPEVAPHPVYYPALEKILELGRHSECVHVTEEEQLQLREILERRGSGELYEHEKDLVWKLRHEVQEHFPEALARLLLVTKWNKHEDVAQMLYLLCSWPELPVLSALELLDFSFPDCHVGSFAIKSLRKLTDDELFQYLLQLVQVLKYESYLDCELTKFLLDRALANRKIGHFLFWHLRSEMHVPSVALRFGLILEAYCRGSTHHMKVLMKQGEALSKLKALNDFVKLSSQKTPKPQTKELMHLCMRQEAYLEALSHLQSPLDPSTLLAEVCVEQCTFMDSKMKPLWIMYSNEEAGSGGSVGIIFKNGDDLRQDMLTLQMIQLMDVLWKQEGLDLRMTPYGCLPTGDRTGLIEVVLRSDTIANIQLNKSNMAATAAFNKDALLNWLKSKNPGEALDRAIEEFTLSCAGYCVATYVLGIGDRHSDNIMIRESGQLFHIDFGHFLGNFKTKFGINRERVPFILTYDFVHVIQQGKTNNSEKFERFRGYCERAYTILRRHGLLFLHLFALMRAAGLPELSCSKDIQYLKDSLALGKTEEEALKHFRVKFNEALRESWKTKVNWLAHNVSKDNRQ
- Sequence (P27986 whole entry partner): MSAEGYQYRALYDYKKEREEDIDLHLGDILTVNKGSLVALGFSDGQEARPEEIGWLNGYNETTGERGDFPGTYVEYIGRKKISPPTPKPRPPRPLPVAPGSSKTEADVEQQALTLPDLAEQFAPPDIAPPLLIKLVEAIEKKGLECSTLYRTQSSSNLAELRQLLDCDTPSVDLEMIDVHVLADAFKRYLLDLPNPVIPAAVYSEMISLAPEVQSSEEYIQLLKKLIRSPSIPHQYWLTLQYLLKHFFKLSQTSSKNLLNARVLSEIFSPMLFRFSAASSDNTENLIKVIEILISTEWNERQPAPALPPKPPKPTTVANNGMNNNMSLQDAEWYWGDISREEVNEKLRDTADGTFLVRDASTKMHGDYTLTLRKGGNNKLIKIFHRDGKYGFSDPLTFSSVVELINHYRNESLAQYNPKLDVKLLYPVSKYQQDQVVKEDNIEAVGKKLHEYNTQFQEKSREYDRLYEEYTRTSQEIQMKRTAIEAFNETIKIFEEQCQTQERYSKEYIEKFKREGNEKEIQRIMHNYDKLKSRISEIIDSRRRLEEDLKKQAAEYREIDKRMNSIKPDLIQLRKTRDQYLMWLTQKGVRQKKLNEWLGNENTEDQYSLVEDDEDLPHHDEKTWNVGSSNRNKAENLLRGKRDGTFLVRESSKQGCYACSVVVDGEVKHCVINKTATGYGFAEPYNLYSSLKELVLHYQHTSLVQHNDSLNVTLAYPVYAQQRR
- Experiment: Transcreener KINASE Assay, kinase inhibition of p110δ/p85α
- Condition Notes: read-out: PI3Kδ IC50
Provide the reported IC50 of each item.
Numeric only. Scale: µM

Could you tell me which IC50 is on file for CC(Nc1ncnc(N)c1C#N)c1cc2c(Cl)cc(Cl)n2c(=O)n1-c1ccccc1 (stereo not shown) ?
0.001

Could you tell me which IC50 is on file for C[C@H]1CN(c2nc(N)ncc2C#N)[C@@H]1c1nn2ccc(C#N)c2c(=O)n1-c1ccccc1 ?
0.078

Could you tell me which IC50 is on file for Nc1ncnc(N2CCC[C@H]2c2nn3ccc(Cl)c3c(=O)n2-c2ccccc2)n1 ?
0.012

Could you tell me which IC50 is on file for O=c1c2c(Cl)ccn2nc([C@@H]2C[C@H](F)CN2c2ncnc3[nH]cnc23)n1Cc1ccccn1 ?
0.021

====

- System Under Test: p110γ (Homo sapiens)
- Sequence (P48736 whole entry): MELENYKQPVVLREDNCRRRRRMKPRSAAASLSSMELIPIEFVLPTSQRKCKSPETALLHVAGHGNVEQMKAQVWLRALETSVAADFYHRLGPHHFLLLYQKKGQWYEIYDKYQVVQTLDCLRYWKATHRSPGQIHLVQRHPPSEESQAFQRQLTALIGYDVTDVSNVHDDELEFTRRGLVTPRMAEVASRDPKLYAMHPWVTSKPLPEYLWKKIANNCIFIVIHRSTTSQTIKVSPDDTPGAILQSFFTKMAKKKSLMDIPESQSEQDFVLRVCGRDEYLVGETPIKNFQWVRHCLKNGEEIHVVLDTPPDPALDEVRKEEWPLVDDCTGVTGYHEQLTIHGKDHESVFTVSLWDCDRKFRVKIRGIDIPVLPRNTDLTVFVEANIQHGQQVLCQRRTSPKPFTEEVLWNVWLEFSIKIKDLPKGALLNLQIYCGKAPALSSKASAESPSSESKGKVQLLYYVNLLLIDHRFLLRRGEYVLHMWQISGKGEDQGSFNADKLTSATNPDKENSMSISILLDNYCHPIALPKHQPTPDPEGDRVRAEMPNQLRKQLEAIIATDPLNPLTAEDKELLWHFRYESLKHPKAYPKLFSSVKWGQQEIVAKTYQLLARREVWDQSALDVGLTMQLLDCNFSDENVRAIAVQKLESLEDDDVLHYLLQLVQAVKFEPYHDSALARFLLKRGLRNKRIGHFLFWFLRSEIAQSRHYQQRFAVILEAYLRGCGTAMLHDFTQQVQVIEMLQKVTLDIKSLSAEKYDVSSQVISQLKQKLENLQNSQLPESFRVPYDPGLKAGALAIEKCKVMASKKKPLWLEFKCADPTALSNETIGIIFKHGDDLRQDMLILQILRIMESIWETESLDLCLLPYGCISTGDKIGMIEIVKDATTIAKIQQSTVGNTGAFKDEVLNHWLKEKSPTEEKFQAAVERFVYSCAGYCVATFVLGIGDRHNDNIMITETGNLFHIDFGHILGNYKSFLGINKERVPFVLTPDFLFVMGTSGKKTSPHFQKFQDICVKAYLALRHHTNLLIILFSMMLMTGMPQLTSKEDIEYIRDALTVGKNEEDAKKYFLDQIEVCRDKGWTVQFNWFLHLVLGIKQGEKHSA
- Experiment: Transcreener KINASE Assay, kinase inhibition of p110γ
- Assay type: biochemical
- Condition Notes: 1 uM test compound
Experimental Readout: PI3Kγ IH % @ 1 uM

Could you tell me which PI3Kγ IH % @ 1 uM is on file for Cc1nc(N)nc(N2C[C@H](C)[C@H]2c2nn3ccc(F)c3c(=O)n2-c2cccc(F)c2)c1C#N ?
>100%

Could you tell me which PI3Kγ IH % @ 1 uM is on file for Nc1nc(N2CC[C@H]2c2nn3ccc(Cl)c3c(=O)n2-c2ccccc2)n2nccc2n1 ?
89.3%

Could you tell me which PI3Kγ IH % @ 1 uM is on file for CC(=O)c1cnc(N)nc1NC(C)c1cn2ccc(Cl)c2c(=O)n1-c1cccc(F)c1 (stereo not drawn) ?
83.7%

Could you tell me which PI3Kγ IH % @ 1 uM is on file for N#Cc1c[nH]c2ncnc(N3CCCC3c3cn4ccc(Cl)c4c(=O)n3-c3ccccc3)c12 (stereo not drawn) ?
>100%

Could you tell me which PI3Kγ IH % @ 1 uM is on file for Nc1nc(N2CCC[C@H]2c2nn3ccc(Cl)c3c(=O)n2-c2ccccc2)n2nccc2n1 ?
>100%

Could you tell me which PI3Kγ IH % @ 1 uM is on file for N#Cc1cccc(-n2c([C@@H]3CCCN3c3ncnc4[nH]cnc34)nn3ccc(Cl)c3c2=O)c1 ?
6.5%

Could you tell me which PI3Kγ IH % @ 1 uM is on file for O=c1c2c(Cl)ccn2nc([C@@H]2C[C@H](F)CN2c2ncnc3[nH]cnc23)n1Cc1ccccn1 ?
79.9%

Could you tell me which PI3Kγ IH % @ 1 uM is on file for N#Cc1ccc(-c2n[nH]c3ncnc(N4CC[C@H]4c4nn5ccc(Cl)c5c(=O)n4-c4ccccc4)c23)cn1 ?
48.7%

Could you tell me which PI3Kγ IH % @ 1 uM is on file for Cc1cc(Cl)c2c(=O)n(-c3ccccc3)c([C@@H]3CCN3c3ncnc4[nH]cnc34)nn12 ?
17.2%

Could you tell me which PI3Kγ IH % @ 1 uM is on file for COc1cnc(N)nc1N1CC[C@H]1c1nn2ccc(Cl)c2c(=O)n1-c1ccccc1 ?
51.2%

Could you tell me which PI3Kγ IH % @ 1 uM is on file for CS(=O)(=O)c1c[nH]c2ncnc(N3CCC[C@H]3c3nn4ccc(Cl)c4c(=O)n3-c3ccccc3)c12 ?
94.1%

Could you tell me which PI3Kγ IH % @ 1 uM is on file for N#Cc1c[nH]c2ncnc(N3C[C@@H](O)C[C@H]3c3nn4ccc(Cl)c4c(=O)n3-c3ccccc3)c12 ?
>100%

Could you tell me which PI3Kγ IH % @ 1 uM is on file for C[C@H]1CCN(c2nc(N)ncc2C#N)C1c1nn2ccc(Cl)c2c(=O)n1-c1ccccc1 (stereo partly drawn) ?
94.9%

Could you tell me which PI3Kγ IH % @ 1 uM is on file for C[S@+]([O-])c1c[nH]c2ncnc(N3CCC[C@H]3c3nn4ccc(Cl)c4c(=O)n3-c3ccccc3)c12 ?
>100%

Could you tell me which PI3Kγ IH % @ 1 uM is on file for COc1cccc(-n2c([C@@H]3CCCN3c3ncnc4[nH]cnc34)nn3ccc(Cl)c3c2=O)c1 ?
90.8%

Where these numbers come from: patent US20150307520A1
